# Tgt: Concanavalin-A (Canavalia ensiformis)
# Procedure Text: compounds binding concanavalin A lectin – biochemical, small-molecule microarray, Alexa647 label, 635 nm, artefact control for SMM control protein annotation, primary screen (AID 1127);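 also: z combines 667 nm emission intensity with signal-to-noise across three replicate slides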
# Condition: ConA-A647 binding fluorescence, higher = more signal
Documented composite z-score across a set of compounds

Smiles Text | composite z-score
COCCOC(=O)N1C(=O)[C@@]2(c3cc(C#CC4=CCCCC4)ccc31)[C@H](C(N)=O)[C@H]1C(=O)O[C@H](c3ccccc3)[C@H](c3ccccc3)N1[C@@H]2c1ccc(O)cc1 | 1.11
C=C[C@H](C)[C@@H](OC(=O)Nc1ccc(SC)cc1)c1ccc(O)c2ccccc12 | 1.02
C[N+](C)(C)CCCCCCNC(=O)[C@H]1C[C@H]2C(=O)N[C@@H](Cc3ccccc3)C(=O)N2[C@H]1c1cccc(OCCO)c1 | 0.996
